- System: NCI-H929 (H929)
- ASSAY: CT-Glo cytotoxicity assay, H929 cells
- Type: cell-based, human
- CONDITIONS: 72-h CT-Glo, average ± SD
TEST READOUT: pIC50
Reminder that pIC50 is minus the log10 of a molar concentration.

Just so you know, measured pIC50 for O=C(Nc1ccc(C2=NCCN2)cc1)c1ccc(C(=O)Nc2ccc(C3=NCCN3)cc2)c([N+](=O)[O-])c1 [NCI-35847] came out at 4.86

====

- Test system: FLOW
- ASSAY: CT-Glo cytotoxicity assay, FLOW cells
- Assay type: cell-based
- CONDITIONS: 72-h CT-Glo, average ± SD
TEST READOUT: pIC50
Scale explanation: pIC50 corresponds to minus log10 of a concentration expressed in moles per litre.

O=C(Nc1ccc(C2=NCCN2)cc1)c1ccc(C(=O)Nc2ccc(C3=NCCN3)cc2)c([N+](=O)[O-])c1 [NCI-35847] = 4.20

Input Brc1ccc(C[N+]23CN4CN(CN(C4)C2)C3)cc1 [NCI-80640] . Output pIC50: 4.45

Per the records, this molecule ( O=C1c2ccccc2C(=O)C1C(=O)C(c1ccccc1)c1ccccc1 [NCI-9138] ) has pIC50 equal to 4.50

Given item Clc1cc(Cl)c(C[N+]23CN4CN(CN(C4)C2)C3)cc1Cl [NCI-155877] , the value recorded as its pIC50 is 4.25
